src = patent US20240052042A1

TARGET_OR_SYSTEM: T1, human NPR1 on CHO-K1 cells (human, UniProt P16066 33-1061)
T1 sequence: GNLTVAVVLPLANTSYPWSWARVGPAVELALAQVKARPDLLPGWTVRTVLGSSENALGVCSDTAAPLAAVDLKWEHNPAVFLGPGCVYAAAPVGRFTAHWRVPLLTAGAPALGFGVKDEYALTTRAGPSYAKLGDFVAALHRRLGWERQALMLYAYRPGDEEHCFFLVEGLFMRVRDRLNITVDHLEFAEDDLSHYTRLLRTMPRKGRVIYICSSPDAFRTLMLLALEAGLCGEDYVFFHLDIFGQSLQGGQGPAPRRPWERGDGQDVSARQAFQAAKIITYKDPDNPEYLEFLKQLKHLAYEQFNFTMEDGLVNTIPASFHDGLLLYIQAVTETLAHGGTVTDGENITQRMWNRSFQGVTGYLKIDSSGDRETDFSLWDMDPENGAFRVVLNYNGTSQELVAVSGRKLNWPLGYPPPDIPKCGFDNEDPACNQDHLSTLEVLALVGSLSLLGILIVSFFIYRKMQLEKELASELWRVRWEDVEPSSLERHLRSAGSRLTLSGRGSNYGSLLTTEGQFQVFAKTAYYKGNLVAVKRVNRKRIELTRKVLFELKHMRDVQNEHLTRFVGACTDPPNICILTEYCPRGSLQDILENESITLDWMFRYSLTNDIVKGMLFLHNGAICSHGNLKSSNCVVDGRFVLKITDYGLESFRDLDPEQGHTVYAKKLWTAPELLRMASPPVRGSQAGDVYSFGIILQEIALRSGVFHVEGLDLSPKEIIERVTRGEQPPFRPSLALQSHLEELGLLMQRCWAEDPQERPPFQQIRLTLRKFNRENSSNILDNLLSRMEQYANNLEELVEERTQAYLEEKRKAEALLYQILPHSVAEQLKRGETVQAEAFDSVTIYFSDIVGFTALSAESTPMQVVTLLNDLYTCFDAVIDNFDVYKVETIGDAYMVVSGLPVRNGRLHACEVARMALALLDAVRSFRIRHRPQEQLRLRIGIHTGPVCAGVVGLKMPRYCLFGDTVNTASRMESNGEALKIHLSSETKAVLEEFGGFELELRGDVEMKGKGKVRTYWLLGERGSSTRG
TEST_METHOD_NOTES: cell-based or functional assay
ASSAY_READOUT: cGMP conc [nM] at 1 µM IgG, without ANP (nM)
Response body: numeric value in nM, unit text excluded.

These solved cases illustrate the format of a correct answer.
>>> meas_value("YY06 (IgG format) (antibody, V domains shown, also called YY06_LALA) VH: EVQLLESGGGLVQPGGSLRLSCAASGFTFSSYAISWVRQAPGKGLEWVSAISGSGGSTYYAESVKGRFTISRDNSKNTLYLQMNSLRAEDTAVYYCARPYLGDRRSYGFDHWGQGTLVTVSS VL: QSALTQPASVSGSPGQSITISCTGTSSDVGSYNLVSWYQQHPGKAPKLMIYEGSKRPSGVSNRFSGSKSGNTASLTISGLQAEDEADYYCSSYGFHIVVVVFGGGTKLTVLG")
12
>>> meas_value("YY01 (IgG format) (antibody, V domains shown, also called YY01_LALA) VH: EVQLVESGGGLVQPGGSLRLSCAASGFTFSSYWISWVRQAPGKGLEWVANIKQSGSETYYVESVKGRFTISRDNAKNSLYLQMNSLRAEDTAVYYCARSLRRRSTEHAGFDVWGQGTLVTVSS VL: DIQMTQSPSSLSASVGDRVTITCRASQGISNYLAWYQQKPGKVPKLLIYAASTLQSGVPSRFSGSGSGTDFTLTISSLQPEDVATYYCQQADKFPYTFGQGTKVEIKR")
5

Let us move to another entry and its cGMP conc [nM] at 1 µM IgG, without ANP.
Ask: Record request: cGMP conc [nM] at 1 µM IgG, without ANP value, item YY07 (IgG format) (antibody, V domains shown, also called YY07_LALA) VH: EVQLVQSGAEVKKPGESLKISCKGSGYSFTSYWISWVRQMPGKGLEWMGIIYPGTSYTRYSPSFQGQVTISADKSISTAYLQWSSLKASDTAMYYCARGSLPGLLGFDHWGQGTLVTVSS VL: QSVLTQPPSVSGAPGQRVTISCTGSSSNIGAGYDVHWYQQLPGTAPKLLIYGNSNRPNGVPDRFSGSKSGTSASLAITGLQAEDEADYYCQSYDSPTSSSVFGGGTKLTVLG
Result: 4
